meta.source: patent US20240270821A1

target: human GLP1-R (SNAP-GLP-1R expressed in HEK293 cells) (human) (UniProt P43220); test: cell-based or functional assay
Sequence (P43220 24-463): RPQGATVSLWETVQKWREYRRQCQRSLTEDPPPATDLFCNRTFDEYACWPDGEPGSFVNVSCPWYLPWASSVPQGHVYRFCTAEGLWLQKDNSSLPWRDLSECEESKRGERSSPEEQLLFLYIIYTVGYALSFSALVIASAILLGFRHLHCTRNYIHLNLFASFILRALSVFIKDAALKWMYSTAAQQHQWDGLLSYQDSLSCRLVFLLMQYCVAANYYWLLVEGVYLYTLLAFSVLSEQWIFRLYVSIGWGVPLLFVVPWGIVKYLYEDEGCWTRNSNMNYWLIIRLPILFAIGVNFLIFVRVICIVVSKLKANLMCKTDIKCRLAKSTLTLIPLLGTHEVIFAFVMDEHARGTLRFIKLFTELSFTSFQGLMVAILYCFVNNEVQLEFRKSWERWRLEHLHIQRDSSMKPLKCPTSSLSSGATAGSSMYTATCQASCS
Starred links: 1 amine or outer side, 2 acyl side, 3 side chain; linkers in the order of their positions; H or OH if unused. Non-standard residues stand in square brackets, D forms with d. Groups on a side chain read outwards from the residue. No end group written: not given here. *: point of attachment. C20 diacid = O=C(O)CCCCCCCCCCCCCCCCCCC(=O)*; γGlu = O=C(O)[C@H](CCC(=O)[*:2])N[*:1]; αMeL = CC(C)C[C@](C)(N)C(=O)O; AEEA = NCCOCCOCC(=O)O; Aib = CC(C)(N)C(=O)O
Assign True to entries whose Internalization % TOP meets or exceeds 60%; assign False to the rest.

>  <binder>
YXQGTFTSDFSKXLDKKAQXAFIEYLLEXGPSSGEPPPSEG (synthetic construct; SITE 2: note = 2-Aminoisobutyric Acid; SITE 13: note = alpha-methyl-leucine; SITE 17: note = Lysine is chemically modified through conjugation of the epsilon-amino group of the Lysine side chain with (2-[2-(2-Amino-ethoxy)-ethoxy]-acetyl)-(gamma-Glu)-CO-(CH2) 16-CO2H; SITE 20: n) [Example 46]

>  <class name>
False

$$$$
>  <binder>
YXQGTFTSDFSKXLDKKAQXAFIEYLLAGGPSSGEPPPSEE (synthetic construct; SITE 2: note = 2-Aminoisobutyric Acid; SITE 13: note = alpha-methyl-leucine; SITE 17: note = Lysine is chemically modified through conjugation of the epsilon-amino group of the Lysine side chain with (2-[2-(2-Amino-ethoxy)-ethoxy]-acetyl)-(gamma-Glu)-CO-(CH2) 18-CO2H; SITE 20: n) [Example 4]

>  <class name>
True

$$$$
>  <binder>
YXQGTFTSDFSKXLDKKAQXAFIEYLLAGGPSSGEPPPSEG (synthetic construct; SITE 2: note = 2-Aminoisobutyric Acid; SITE 13: note = alpha-methyl-leucine; SITE 17: note = Lysine is chemically modified through conjugation of the epsilon-amino group of the Lysine side chain with (2-[2-(2-Amino-ethoxy)-ethoxy]-acetyl)-(gamma-Glu)-CO-(CH2) 16-CO2H; SITE 20: n) [Example 22]

>  <class name>
True

$$$$
>  <binder>
YXQGTFTSDFSXXLDKKAQXAFIEYLLEGGPSSGAPPPGGSX (synthetic construct; SITE 2: note = 2-Aminoisobutyric Acid; SITE 12: note = L-ornithine; SITE 13: note = alpha-methyl-leucine; SITE 17: note = Lysine is chemically modified through conjugation of the epsilon-amino group of the Lysine side chain with (2-[2-(2-Amino-ethoxy)-ethoxy]-acetyl)-(gamma-Glu)) [Example 66]

>  <class name>
False

$$$$
>  <binder>
YXQGTFTSDFSKXLDKKAQXAFIEYLLAGGPSSGEPPPSEGX (synthetic construct; SITE 2: note = 2-Aminoisobutyric Acid; SITE 13: note = alpha-methyl-leucine; SITE 17: note = Lysine is chemically modified through conjugation of the epsilon-amino group of the Lysine side chain with (2-[2-(2-Amino-ethoxy)-ethoxy]-acetyl)-(gamma-Glu)-CO-(CH2) 18-CO2H; SITE 20: n) [Example 32]

>  <class name>
True

$$$$
>  <binder>
Y[Aib]QGTFTSDFSK[αMeL]LDKK([AEEA-γGlu-C20 diacid])AQQAFIEYLLA[Aib]GPSSGEPPPSEG-NH2 [Example 19]

>  <class name>
True

$$$$
